Listing of recorded pIC50 by entry.
molecular target: cloned human MC4R (Homo sapiens); construct: made in house; host or cells: Hi5 insect cells (baculovirus infection); membrane preparation; experiment: Membrane binding assay: competitive inhibition of [125I]NDP-α-MSH binding; settings: read-out: MC4R IC50
Sequence (P32245 whole entry): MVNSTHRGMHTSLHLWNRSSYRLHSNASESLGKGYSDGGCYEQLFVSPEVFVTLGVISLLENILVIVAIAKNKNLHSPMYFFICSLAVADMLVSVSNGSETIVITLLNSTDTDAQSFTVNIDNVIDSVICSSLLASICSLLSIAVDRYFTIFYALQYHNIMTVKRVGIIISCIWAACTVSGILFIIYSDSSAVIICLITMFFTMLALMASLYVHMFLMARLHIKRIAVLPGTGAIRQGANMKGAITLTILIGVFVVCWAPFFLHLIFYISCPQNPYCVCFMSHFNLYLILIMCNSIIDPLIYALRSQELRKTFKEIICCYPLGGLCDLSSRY
pIC50: −log10 of the molar value.

// known answers, use as guide
> print(dat)
                                   molecule   test.result
1  CC(C)(C)c1ccc(COc2ccc(C[C@H](N)C(=O)N3CCN(Cc4cccc(Cl)c4Cl)CC3)cc2)cc1 [Example 201]        > 5.82
2  Cc1cc(C)cc(COc2ccc(C[C@H](N)C(=O)N3CCN(Cc4cccc(Cl)c4Cl)CC3)cc2)c1 [Example 190]  5.52 to 5.82
3  CCc1ccc(CN2CCN(C(=O)[C@@H](N)Cc3ccc(OCc4ccccc4)cc3)CC2)cc1 [Example 135]        < 5.52
4  N[C@@H](Cc1ccc(OCc2ccccc2)cc1)C(=O)N1CCCN(Cc2ccc(C(c3ccccc3)c3ccccc3)cc2)CC1 [Example 1]        > 5.82
5  CCOc1cccc(CN2CCN(C(=O)[C@@H](N)Cc3ccc(OCc4ccccc4)cc3)CC2)c1O [Example 117]        < 5.52

Using the record for N[C@@H](Cc1ccc(OCc2ccccc2)cc1)C(=O)N1CCN(Cc2ccc(Cl)cc2Cl)CC1 [Example 119] , report its pIC50.
< 5.52

Note, next up: CN[C@@H](Cc1ccc(OCc2ccccc2)cc1)C(=O)N1CCN(Cc2cccc(Cl)c2Cl)CC1 [Example 165]
> 5.82

Note, next up: COc1ccc(Cl)cc1-c1ccc(C[C@H](N)C(=O)N2CCN(Cc3cccc(Cl)c3Cl)CC2)cc1 [Example 327]
5.52 to 5.82

Note, next up: N[C@@H](Cc1ccc(OCc2ccc(Br)cc2)cc1)C(=O)N1CCN(Cc2cccc(Cl)c2Cl)CC1 [Example 186]
> 5.82

Note, next up: CCc1ccc(CN2CCCN(C(=O)[C@@H](N)Cc3ccc(OCc4ccccc4)cc3)CC2)cc1 [Example 38]
< 5.52

Note, next up: N[C@@H](Cc1ccc(-c2ccc(F)cc2)cc1)C(=O)N1CCN(Cc2cccc(Cl)c2Cl)CC1 [Example 296]
> 5.82

Note, next up: N[C@@H](Cc1ccc(OCc2ccccc2)cc1)C(=O)N1CCCN(Cc2cnc3ccccc3c2)CC1 [Example 62]
< 5.52

Note, next up: O=C([C@H](Cc1ccc(OCc2ccccc2)cc1)NCCN1CCOCC1)N1CCN(Cc2cccc(Cl)c2Cl)CC1 [Example 172]
5.52 to 5.82

Note, next up: N[C@@H](Cc1ccc(OCc2ccccc2)cc1)C(=O)N1CCN(Cc2cccc(Oc3ccccc3)c2)CC1 [Example 103]
> 5.82

Note, next up: N[C@@H](Cc1ccc(-c2cc(Cl)cc(Cl)c2)cc1)C(=O)N1CCN(Cc2cccc(Cl)c2Cl)CC1 [Example 312]
5.52 to 5.82

Note, next up: COc1cc(OC)c(CN2CCCN(C(=O)[C@@H](N)Cc3ccc(OCc4ccccc4)cc3)CC2)cc1Br [Example 31]
5.52 to 5.82

Note, next up: N[C@@H](Cc1ccc(OCc2ccc(Cl)cc2Cl)cc1)C(=O)N1CCN(Cc2cccc(Cl)c2Cl)CC1 [Example 200]
> 5.82

Note, next up: N[C@@H](Cc1ccc(OCc2ccccc2)cc1)C(=O)N1CCN(CC2CCCCC2)CC1 [Example 113]
> 5.82
